The reported measurements were obtained from a melting point compilation (Tetko et al.).

Below, each of the compounds is paired with its reported melting point value.
ENDPOINT: melting point

chemical_string=CCOC(=O)c1cnc2n(c1=O)CCS2 result="175 to 176 °C"
chemical_string=COC(=O)c1c(OC)c(OC)c(C(=O)OC)c(C(=O)OC)c1OC result="52 to 55 °C"
chemical_string=CCSc1sc(C#N)c2c1C(=O)CC(C)(C)C2 result="150 to 153 °C"
chemical_string=Cc1ccc2cc([N+](=O)[O-])ccc2n1 result="165 to 166 °C"
chemical_string=c1ccc2c(c1)-c1ccccc1-2 result="114 to 115 °C"
chemical_string=Cc1cc(C)n(C(N)=O)n1 result="113 to 115 °C"
chemical_string=Cc1cc(CO)c(-c2ccccc2)o1 result="56 to 59 °C"
chemical_string=C/C(=N\CCN)c1c(O)c2ccccc2n(-c2ccccc2)c1=O result="> 300 °C"
chemical_string=Cc1cc(O)c(C(c2ccc([N+](=O)[O-])cc2)c2c(O)cc(C)oc2=O)c(=O)o1 result="238 to 240 °C"
chemical_string=COc1ccc2c(c1)CCc1ccc3c(c1-2)c(=O)n(-c1ccccc1)n3C result="162 °C"
chemical_string=O=C(CCl)Nc1cccc(C(F)(F)F)c1 result="62.5 to 64 °C"
chemical_string=Nc1ccc(OC(F)(F)F)cc1[N+](=O)[O-] result="62 to 64 °C"
chemical_string=Cc1cccc2c1[nH]c(=O)c1cc(NC(=O)c3ccccc3)c(=O)oc12 result="> 300 °C"
chemical_string=BrC1(c2ccccc2)c2ccccc2-c2ccccc21 result="97 °C"
chemical_string=Oc1ccc2cc(Br)ccc2c1Br result="105 to 107 °C"
chemical_string=CCC(=O)c1ccc[nH]1 result="50 °C"
chemical_string=c1ccc2c(c1)ccc1ccc3ccccc3c12 result="68 °C"

====

Entries and their melting point
ENDPOINT: melting point

chemical_string=O=CC=Cc1ccccc1[N+](=O)[O-] endpoint="melting point" result="125 to 129 °C"
chemical_string=O=C(Nc1nnc(-c2ccc(Cl)cc2)o1)c1cccc(C(F)(F)F)c1 endpoint="melting point" result="215 to 217 °C"
chemical_string=Cc1n[nH]c(C)c1-c1ccc(-c2ccccc2)cc1 endpoint="melting point" result="221 to 222 °C"
chemical_string=O=C1C(c2ccccc2)=C(c2ccccc2)C(c2ccccc2)=C1c1ccccc1 endpoint="melting point" result="217 to 222 °C"

====

A collection of compounds and their measured melting point
ENDPOINT: melting point

compound=COC(=O)c1scc(S(C)(=O)=O)c1-n1cccc1 result="124 to 126 °C"
compound="O=C1OC(=O)C23CC4=C(CC=CC4)CC12CC1=C(CC=CC1)C3 (stereo not drawn)" result="220 to 247 °C"
compound=O=C(O)c1cccc(-c2cnco2)c1 result="259 to 261 °C"
compound=Cc1nc2ccc(Br)cn2c(=O)c1C(=O)c1ccccc1 result="245 to 247 °C"
compound=CCOC(=O)c1cc(-c2ccccc2)on1 result="48 to 49.5 °C"
compound=CC(=O)c1ccc(-c2ccccc2OC(F)(F)F)o1 result="40 to 47 °C"
compound=Cc1cc(C)c(CCl)cc1CCl result="97 to 99 °C"
compound="Cc1ccc(S(=O)(=O)OCC(C)OS(=O)(=O)c2ccc(C)cc2)cc1 (stereo not drawn)" result="68 to 70 °C"
compound=COC(=O)c1ccccc1C(=O)c1cc(C)c(O)c(C)c1 result="155 to 157 °C"
compound=O=Cc1nc(-c2ccccc2Cl)c2cc(Cl)ccc2n1 result="159 to 160 °C"
compound=N#Cc1cnccc1/C=C/c1ccccc1 result="128 to 130 °C"
compound=CC1(C)CC(=O)c2cc(-c3ccccc3)n(CCc3ccccc3)c2C1 result="113 to 115 °C"
compound=O=C=Nc1ccc(F)cc1[N+](=O)[O-] result="50 to 55 °C"

====

Below, each entry is listed alongside its reported melting point.
ENDPOINT: melting point

molecule="CC(=O)N1CCSC1C(=O)NN (stereo not given)" endpoint="melting point" result="193 to 196 °C"
molecule=OC1CN(C(c2ccccc2)c2ccccc2)C1 endpoint="melting point" result="106 to 111 °C"
molecule=C[Si](C)(C)N([Si](C)(C)C)[Si](C)(C)C endpoint="melting point" result="67 to 69 °C"
molecule=O=C1NCN(c2ccccc2)C12CCNCC2 endpoint="melting point" result="183 to 185 °C"
molecule=CC1=NNC(=O)CC1 endpoint="melting point" result="79 to 83 °C"
molecule=Cc1c(Cl)c(Cl)c(C)c(Cl)c1Cl endpoint="melting point" result="216 °C"
molecule=Cc1nc(-c2ccc(C(F)(F)F)cc2)sc1C#N endpoint="melting point" result="155 to 156 °C"
molecule=Cc1ccccc1-c1cc(-c2ccccc2)[nH]n1 endpoint="melting point" result="107 to 108 °C"
molecule=O=C1Nc2ccc(Cl)cc2C1=O endpoint="melting point" result="242 to 250 °C"
molecule=NNc1ncnc2sc3c(c12)CCCC3 endpoint="melting point" result="178 to 179 °C"

====

ENDPOINT: melting point (°C)

compound=N#C/C(=N/Nc1cccc2ccccc12)c1nc2ccccc2s1 endpoint="melting point" measured_number=254
compound=c1ccc(-c2oc(-c3ccccc3)c3ccccc23)cc1 endpoint="melting point" measured_number=135
compound="CC1C(=O)C23C4CC5C(C)(C)CCC(=O)C56COC(CC1C2OC(C)(C)O4)C63 (stereo unspecified)" endpoint="melting point" measured_number=252
compound=CC(C)NC(=O)C(C(F)(F)F)C(F)(F)F endpoint="melting point" measured_number=136
compound=Nc1cc(N)nc(N)n1 endpoint="melting point" measured_number=250
compound="CC1=C(C(=O)OCc2ccccc2)C(c2ccco2)NC(=O)N1 (stereo unspecified)" endpoint="melting point" measured_number=195
compound=CC(=O)N[C@@H](Cc1ccccc1)C(=O)O endpoint="melting point" measured_number=172
compound=Cc1cc(Br)cnc1F endpoint="melting point" measured_number=62
compound=O=C(O)c1cccc(SC(F)(F)F)c1 endpoint="melting point" measured_number=73

====

ENDPOINT: melting point

compound=Cc1noc(-c2ccccc2)c1CO endpoint="melting point" result="109 to 110 °C"
compound="CC1(C)OCC2OC3OC(C)(C)OC3C2O1 (stereo unspecified)" endpoint="melting point" result="42 to 46 °C"
compound=Clc1ccc2c(c1)N=C(N1CCN(C3=Nc4cc(Cl)ccc4Nc4ccccc43)CC1)c1ccccc1N2 endpoint="melting point" result="333 to 335 °C"
compound=Nc1cccc2cc3ccccc3nc12 endpoint="melting point" result="108 °C"
compound=Cc1cc(C)n2cnnc2n1 endpoint="melting point" result="165 to 167 °C"
compound=CC(=O)c1ccccc1OCc1ccccc1 endpoint="melting point" result="38 to 40 °C"

====

The entries below are paired with their reported melting point.
ENDPOINT: melting point

chemical_string=Nc1cccc(N2CCOCC2)c1 result="118 to 119 °C"
chemical_string=CCC1C(=O)CCC1=O result="172 to 175 °C"
chemical_string=N=C(N)NCCS(=O)(=O)O result="263 to 265 °C"
chemical_string=CC1(C)O[C@@H](CP(c2ccccc2)c2ccccc2)[C@@H](CP(c2ccccc2)c2ccccc2)O1 result="86 to 88 °C"
chemical_string=O=Cc1cnc2ccccc2c1 result="68 to 71 °C"
chemical_string=c1ccc(-c2cc3c(ccc4nonc43)nn2)cc1 result="201 to 203 °C"

====

ENDPOINT: melting point

molecule=C=C(C)C(=O)Oc1ccc(C(C)(C)c2ccc(OC(=O)C(=C)C)cc2)cc1 result="70 to 76 °C"
molecule=Nc1ccc(-c2cn3c(n2)SCC3)cc1 result="225 to 226 °C"
molecule="O=C(O)C1CC(=O)N(Cc2ccc(C(F)(F)F)cc2)C1 (stereo not drawn)" result="128 to 130 °C"
molecule=O=C(O)c1cnc(NCc2ccccc2)s1 result="163 to 164 °C"
molecule=N#Cc1cc([N+](=O)[O-])ccc1F result="73 to 74 °C"
molecule=O=C(O)c1cc(O)cc(O)c1 result="235 to 240 °C"
molecule="O=C(O)C1C2CC3(OCCO3)C1CC2Cl (stereo not drawn)" result="164 to 166 °C"
molecule="O=C1OC(=O)C2CCC12 (stereo not drawn)" result="73 to 76 °C"

====

Listed here are compounds together with their documented melting point.
ENDPOINT: melting point

compound=COc1ccc(CC(=O)O)cc1C result="93 to 95 °C"
compound=Cc1nn(C)c(Cl)c1S(=O)(=O)O result="308 to 310 °C"
compound="Oc1ccccc1C=NC1CCCCC1N=Cc1ccccc1O (stereo unspecified)" result="118 °C"
compound=COc1nsc(Nc2ccc(Br)cc2)n1 result="237 to 239 °C"
compound=C[Si]1(C)Oc2ccc3ccccc3c2-c2c(ccc3ccccc23)O[Si](C)(C)O1 result="173 °C"
compound="CC(C)(C)OC(=O)CC(NC(=O)OCC1c2ccccc2-c2ccccc21)C(=O)O (stereo unspecified)" result="147 to 151 °C"
